Where do these numbers come from? They come from patent US20230272056A1.

target: T1, human LAP-TGFB1 Fc fusion (human); experiment: SPR, antigen-Fc captured, Fab analyte
T1 construct: also called human LAP-TGFβ1-Fc; human LAP-TGFβ-Fc isoform 1
T1 sequence (chain, as listed by the source limits assumed): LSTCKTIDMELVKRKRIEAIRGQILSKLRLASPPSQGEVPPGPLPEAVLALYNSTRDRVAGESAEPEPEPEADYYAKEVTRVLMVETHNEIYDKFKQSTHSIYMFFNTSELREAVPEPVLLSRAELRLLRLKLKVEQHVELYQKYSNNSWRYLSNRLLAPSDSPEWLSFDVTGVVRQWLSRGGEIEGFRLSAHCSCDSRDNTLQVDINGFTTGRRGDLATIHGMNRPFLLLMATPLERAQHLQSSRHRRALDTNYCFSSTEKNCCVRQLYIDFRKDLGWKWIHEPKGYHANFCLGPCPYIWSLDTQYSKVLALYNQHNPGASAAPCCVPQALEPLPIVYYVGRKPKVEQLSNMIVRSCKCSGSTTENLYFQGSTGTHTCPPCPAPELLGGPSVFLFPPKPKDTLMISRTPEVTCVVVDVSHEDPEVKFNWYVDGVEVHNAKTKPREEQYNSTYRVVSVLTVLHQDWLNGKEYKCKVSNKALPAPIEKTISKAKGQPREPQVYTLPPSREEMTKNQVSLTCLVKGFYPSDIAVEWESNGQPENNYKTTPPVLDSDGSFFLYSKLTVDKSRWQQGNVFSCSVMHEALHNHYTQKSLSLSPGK
# pKd per record follows
Please express pKd as -log10 of the molar concentration.

Previously resolved entries follow.
# Binder, Measure, Measured
rows = [
    ("VH W33Y/VL T30Y (90BJM) (Fab, V domains shown, also called VH33/VL30) VH: EVQLVQSGAEVKKPGASVKVSCKASGYTFTSYYMHWVRQAPGQGLEWMGRIDPQSGGIKYAQKFQGRATLTVDTSTSTAYMELSRLRSDDTAVYYCARWDYGGYFDVWGQGTLVTVSS VL: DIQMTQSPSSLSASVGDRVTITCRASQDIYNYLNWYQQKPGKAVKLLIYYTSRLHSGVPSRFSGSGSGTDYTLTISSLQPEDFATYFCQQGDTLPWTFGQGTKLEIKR", "pKd", 8.40),
    ("VH W33Y/VL T93Y (92BJM) (Fab, V domains shown, also called VH33/VL93) VH: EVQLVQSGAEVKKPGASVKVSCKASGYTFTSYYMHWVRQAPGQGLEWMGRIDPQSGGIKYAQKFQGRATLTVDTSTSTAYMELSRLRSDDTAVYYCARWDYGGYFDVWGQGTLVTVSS VL: DIQMTQSPSSLSASVGDRVTITCRASQDITNYLNWYQQKPGKAVKLLIYYTSRLHSGVPSRFSGSGSGTDYTLTISSLQPEDFATYFCQQGDYLPWTFGQGTKLEIKR", "pKd", 7.69),
    ("20E6 Fab (80BGJ/85BIT) (Fab, V domains shown, also called 20E6 (80BGJ); 20E6 (85BIT)) VH: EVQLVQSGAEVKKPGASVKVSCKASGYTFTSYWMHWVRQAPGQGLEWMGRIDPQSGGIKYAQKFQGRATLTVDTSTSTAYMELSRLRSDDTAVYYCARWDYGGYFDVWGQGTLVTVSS VL: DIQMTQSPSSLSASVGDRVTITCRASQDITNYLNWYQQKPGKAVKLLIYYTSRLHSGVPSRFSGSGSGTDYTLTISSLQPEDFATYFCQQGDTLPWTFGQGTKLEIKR", "pKd", 7.09),
]

Please find the next binder below.
pKd measured on VH W33Y/VL R53Y (91BJM) (Fab, V domains shown, also called VH33/VL53) VH: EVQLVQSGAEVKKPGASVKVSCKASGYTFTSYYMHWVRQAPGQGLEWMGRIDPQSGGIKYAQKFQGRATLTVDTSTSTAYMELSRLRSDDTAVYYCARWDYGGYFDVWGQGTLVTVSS VL: DIQMTQSPSSLSASVGDRVTITCRASQDITNYLNWYQQKPGKAVKLLIYYTSYLHSGVPSRFSGSGSGTDYTLTISSLQPEDFATYFCQQGDTLPWTFGQGTKLEIKR = 7.93
